Could you please report measured Ki for the items listed next?
Value expressed in µM; do not type the unit.

Cc1nn(C)c(C)c1-c1cccc2c(CCCOc3cccc4ccccc34)c(C(=O)O)n(CCN3CCOCC3)c12 on Induced myeloid leukemia cell differentiation protein Mcl-1 (Homo sapiens, UniProt Q07820) gives Ki = 0.004

Log: Induced myeloid leukemia cell differentiation protein Mcl-1 (Homo sapiens, UniProt Q07820), molecule Cc1cccc(-c2cccc3c(CCCOc4cccc5ccccc45)c(C(=O)O)[nH]c23)c1 , Ki = 8.2

O=C(O)c1[nH]c2c(-c3ccccc3)cccc2c1CCCOc1cccc2ccccc12 tested on Induced myeloid leukemia cell differentiation protein Mcl-1 (Homo sapiens, UniProt Q07820) gave Ki: 5.3

Cc1ccc(-c2cccc3c(CCCOc4cccc5ccccc45)c(C(=O)O)[nH]c23)cc1 tested on Induced myeloid leukemia cell differentiation protein Mcl-1 (Homo sapiens, UniProt Q07820) gave Ki: 9.1

Kindly note: Induced myeloid leukemia cell differentiation protein Mcl-1 (Homo sapiens, UniProt Q07820), Cc1ccccc1-c1cccc2c(CCCOc3cccc4ccccc34)c(C(=O)O)[nH]c12 , Ki value reported: 8.6

====

- MEASUREMENT TARGET: Apoptosis regulator Bcl-2 (Homo sapiens, UniProt P10415)
- Sequence (P10415 whole entry): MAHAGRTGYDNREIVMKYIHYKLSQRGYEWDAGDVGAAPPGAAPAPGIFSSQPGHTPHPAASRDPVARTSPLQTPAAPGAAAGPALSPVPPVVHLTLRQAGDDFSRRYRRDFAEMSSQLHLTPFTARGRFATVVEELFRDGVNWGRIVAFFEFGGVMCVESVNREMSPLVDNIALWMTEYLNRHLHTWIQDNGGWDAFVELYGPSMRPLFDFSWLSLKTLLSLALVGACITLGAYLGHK
- EXPERIMENT: Inhibition of BCL-2 (unknown origin) by fluorescence polarization assay
PARAMETER: Ki

Memo: O=C(O)c1[nH]c2ccccc2c1CCCCC1CCCCC1 , reported Ki: > 10 µM

====

- MEASUREMENT TARGET: Bcl-2-like protein 2 (Homo sapiens)
- Sequence (Q92843 whole entry): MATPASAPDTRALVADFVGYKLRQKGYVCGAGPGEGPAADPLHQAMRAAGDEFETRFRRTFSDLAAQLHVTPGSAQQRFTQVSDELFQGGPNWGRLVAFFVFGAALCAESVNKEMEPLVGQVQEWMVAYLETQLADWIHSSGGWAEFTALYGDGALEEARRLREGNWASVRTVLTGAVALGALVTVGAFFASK
PARAMETER: Ki

Ki in this record for Cc1nn(C)c(COc2ccc(N3CCN(S(C)(=O)=O)CC3)cc2)c1-c1cccc2c(CCCOc3cccc4ccccc34)c(C(=O)O)n(CCN3CCOCC3)c12 : > 660 nM

====

Answer each item with its documented pKi.
Scale: negative log10 of molar concentration, which is what pKi denotes.

Case Cc1nn(C)c(C)c1-c1cccc2c(CCCOc3cccc4ccccc34)c(C(=O)O)n(CCN3CCOCC3)c12 , Induced myeloid leukemia cell differentiation protein Mcl-1 (Homo sapiens, UniProt Q07820), pKi recorded as 8.82

Param item: Cc1nn(C)c(COc2ccc(N3CCN(S(=O)(=O)N4CCOCC4)CC3)cc2)c1-c1cccc2c(CCCOc3cccc4ccccc34)c(C(=O)O)n(CCN3CCOCC3)c12 ; param system: Induced myeloid leukemia cell differentiation protein Mcl-1 (Homo sapiens, UniProt Q07820); output pKi: 9.32

Lab entry: Induced myeloid leukemia cell differentiation protein Mcl-1 (Homo sapiens, UniProt Q07820) assay, compound CCS(=O)(=O)N1CCN(c2ccc(OCc3c(-c4cccc5c(CCCOc6cccc7ccccc67)c(C(=O)O)n(CCN6CCOCC6)c45)c(C)nn3C)cc2)CC1 , pKi = 9.70

CC(=O)N1CCN(c2ccc(OCc3c(-c4cccc5c(CCCOc6cccc7ccccc67)c(C(=O)O)n(CCN6CCOCC6)c45)c(C)nn3C)cc2)CC1 on Induced myeloid leukemia cell differentiation protein Mcl-1 (Homo sapiens, UniProt Q07820) gives pKi = 9.62

Item: Cc1nn(C)c(COc2ccc(N3CCN(S(=O)(=O)N(C)C)CC3)cc2)c1-c1cccc2c(CCCOc3cccc4ccccc34)c(C(=O)O)n(CCN3CCOCC3)c12 | System: Induced myeloid leukemia cell differentiation protein Mcl-1 (Homo sapiens, UniProt Q07820) | pKi: 9.35

Response field pKi (Induced myeloid leukemia cell differentiation protein Mcl-1 (Homo sapiens, UniProt Q07820)) for item CC(=O)N1CCN(c2ccc(OCc3nn(C)c(C)c3-c3cccc4c(CCCOc5cccc6ccccc56)c(C(=O)O)n(Cc5cccnc5)c34)cc2)CC1 : 8.74

pKi of CCOC(=O)c1c(CCCOc2cccc3ccccc23)c2cccc(-c3c(C)nn(C)c3COc3ccc(N4CCNCC4)cc3)c2n1CCN1CCOCC1 , assay on Induced myeloid leukemia cell differentiation protein Mcl-1 (Homo sapiens, UniProt Q07820), is 8.70

Case Cc1nn(C)c(COc2ccccc2)c1-c1cccc2c(CCCOc3cccc4ccccc34)c(C(=O)O)n(CCN3CCOCC3)c12 , Induced myeloid leukemia cell differentiation protein Mcl-1 (Homo sapiens, UniProt Q07820), pKi recorded as 8.64

Value (pKi, Induced myeloid leukemia cell differentiation protein Mcl-1 (Homo sapiens, UniProt Q07820)) for record CCCS(=O)(=O)N1CCN(c2ccc(OCc3c(-c4cccc5c(CCCOc6cccc7ccccc67)c(C(=O)O)n(CCN6CCOCC6)c45)c(C)nn3C)cc2)CC1 = 9.51

====

PARAMETER: Ki (nM)
Reply with just the number (in nM).

Noted Ki for O=C(O)c1[nH]c2c(-c3ccccc3)cccc2c1CCCOc1cccc2ccccc12 , tested on Induced myeloid leukemia cell differentiation protein Mcl-1 (Homo sapiens): 130

Reported Ki (Induced myeloid leukemia cell differentiation protein Mcl-1 (Homo sapiens)) for entry Cc1ccccc1-c1cccc2c(CCCOc3cccc4ccccc34)c(C(=O)O)[nH]c12 is 35

Item: Cc1cccc(-c2cccc3c(CCCOc4cccc5ccccc45)c(C(=O)O)[nH]c23)c1 | System: Induced myeloid leukemia cell differentiation protein Mcl-1 (Homo sapiens) | Ki: 160

Case Cc1ccc(-c2cccc3c(CCCOc4cccc5ccccc45)c(C(=O)O)[nH]c23)cc1 , Induced myeloid leukemia cell differentiation protein Mcl-1 (Homo sapiens), Ki recorded as 150

====

pKi: −log10 of the molar value.
PARAMETER: pKi

Short answer on Apoptosis regulator Bcl-2 (Homo sapiens) for Cc1nn(C)c(COc2ccc(N3CCN(S(C)(=O)=O)CC3)cc2)c1-c1cccc2c(CCCOc3cccc4ccccc34)c(C(=O)O)n(CCN3CCOCC3)c12 , pKi: < 6.18

====

- MEASUREMENT TARGET: Bcl-2-like protein 1 (Homo sapiens, UniProt Q07817)
- Sequence (Q07817 whole entry): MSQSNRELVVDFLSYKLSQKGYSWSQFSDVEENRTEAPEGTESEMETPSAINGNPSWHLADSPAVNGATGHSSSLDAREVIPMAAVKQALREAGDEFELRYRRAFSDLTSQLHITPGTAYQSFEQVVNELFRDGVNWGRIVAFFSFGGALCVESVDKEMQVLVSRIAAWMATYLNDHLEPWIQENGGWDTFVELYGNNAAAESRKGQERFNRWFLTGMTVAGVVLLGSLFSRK
pKi: −log10 of the molar value.
PARAMETER: pKi

Considering Cc1nn(C)c(COc2ccc(N3CCN(S(C)(=O)=O)CC3)cc2)c1-c1cccc2c(CCCOc3cccc4ccccc34)c(C(=O)O)n(CCN3CCOCC3)c12 , its pKi with Bcl-2-like protein 1 (Homo sapiens, UniProt Q07817) was recorded as < 6.18

====

Parameter 'readout' = Ki; parameter 'system' = Albumin (Homo sapiens, UniProt P02768).
Sequence (P02768 whole entry): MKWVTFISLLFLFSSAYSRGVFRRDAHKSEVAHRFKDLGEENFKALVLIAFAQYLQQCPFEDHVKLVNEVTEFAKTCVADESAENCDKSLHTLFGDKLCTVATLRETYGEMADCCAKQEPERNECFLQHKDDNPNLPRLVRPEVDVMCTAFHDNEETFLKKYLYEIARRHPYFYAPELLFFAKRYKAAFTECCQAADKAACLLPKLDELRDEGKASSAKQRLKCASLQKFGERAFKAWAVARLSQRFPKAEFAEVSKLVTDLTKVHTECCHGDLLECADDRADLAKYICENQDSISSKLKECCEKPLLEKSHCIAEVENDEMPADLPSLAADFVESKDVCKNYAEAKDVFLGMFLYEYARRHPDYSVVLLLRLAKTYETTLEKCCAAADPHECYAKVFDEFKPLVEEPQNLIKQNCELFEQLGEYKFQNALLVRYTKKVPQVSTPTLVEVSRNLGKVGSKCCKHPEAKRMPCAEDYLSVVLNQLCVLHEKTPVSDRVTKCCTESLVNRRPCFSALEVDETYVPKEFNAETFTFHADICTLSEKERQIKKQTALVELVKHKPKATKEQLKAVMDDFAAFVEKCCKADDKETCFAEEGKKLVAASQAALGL

Entry under test: O=C(O)c1[nH]c2ccccc2c1CCCO . Its Ki was > 100 µM

Notebook: Cc1nn(C)c(C)c1-c1cccc2c(CCCOc3cccc4ccccc34)c(C(=O)O)n(CCN3CCOCC3)c12 , Ki read as 1.45 µM

response.value for Cc1ccccc1-c1cccc2c(CCCOc3cccc4ccccc34)c(C(=O)O)[nH]c12 (field: Ki) = < 0.03 µM

====

- MEASUREMENT TARGET: Induced myeloid leukemia cell differentiation protein Mcl-1 (Homo sapiens, UniProt Q07820)
- Sequence (Q07820 whole entry): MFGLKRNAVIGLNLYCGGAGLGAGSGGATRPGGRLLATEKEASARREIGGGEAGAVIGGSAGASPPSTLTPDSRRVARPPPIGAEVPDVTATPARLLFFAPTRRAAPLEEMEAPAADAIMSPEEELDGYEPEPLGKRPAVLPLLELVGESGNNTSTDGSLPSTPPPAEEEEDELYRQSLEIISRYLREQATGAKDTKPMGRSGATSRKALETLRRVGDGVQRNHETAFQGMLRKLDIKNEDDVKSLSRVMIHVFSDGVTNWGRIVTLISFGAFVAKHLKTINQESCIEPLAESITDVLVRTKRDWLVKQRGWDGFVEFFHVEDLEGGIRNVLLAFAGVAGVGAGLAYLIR
- EXPERIMENT: Displacement of fluorescent labeled NOXA peptide from recombinant MCL1 (unknown origin) after 15 mins by fluorescence polarization assay
PARAMETER: pKi
The quantity pKi is defined as the negative base-10 logarithm of the molar concentration.

The value of pKi measured for the compound O=C(O)c1[nH]c2ccccc2c1CCCCC1CCCCC1 turned out to be 5.36

====

- EXPERIMENT: Fraction unbound in human plasma after 4.5 hrs by equilibrium dialysis method
- Type: ADME, cell-free
PARAMETER: fraction unbound at 4.5 h

// recorded fraction unbound at 4.5 h for Cc1nn(C)c(COc2ccc(N3CCN(S(C)(=O)=O)CC3)cc2)c1-c1cccc2c(CCCOc3cccc4ccccc34)c(C(=O)O)n(CCN3CCOCC3)c12 : < 0.01
